- System: K4 kissing-loop RNA reporter;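 also: bound reporter read as fluorescence of individual clusters on recovered sequencing chips by microscopy, with normalized cluster intensities fitted with a binding model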
- Method: apparent KD of K4 kissing-loop reporter; higher = weaker reporter binding
- Measurement Conditions: Eterna round: R107; input ligand: arginine 13.2 mM
Below, each entry is listed alongside its reported apparent KD of K4 kissing-loop reporter.

Seq String	apparent KD of K4 kissing-loop reporter [µM]
UGACUGGAUGGAAGGAGCGCUAAACUCCUAGUGAUGUUAGGGAAACGAGACAAAGUCUCGAAGCAGGUAGGUCGCCAUCUAGUCU [FiskerMod 14 - Jieux - Same State - Arginine B]	0.134
AAGCAGUCACUCGACGCCAUCGAAGAUGGGCGAGGACCGGUACGGCCGCCACUCGGAGUGAUGUUCUGAAGACUGCAAAAUAAAA [MatMod 7 - Jieux - Exclusion - Tryptophan A]	0.166
AAUUUAUUAACUGAUACCAGACUAAUUUUAUUUAUUAAGUCAAGUGAUGUUUGACUUUAUGUCCCUUGGCAGCAGAAUUAAUUAA [JR_SSTheophyB_Sub019]	0.143
